- ASSAY TARGET: VEGFR2 (Homo sapiens)
- Sequence (P35968 20-1356): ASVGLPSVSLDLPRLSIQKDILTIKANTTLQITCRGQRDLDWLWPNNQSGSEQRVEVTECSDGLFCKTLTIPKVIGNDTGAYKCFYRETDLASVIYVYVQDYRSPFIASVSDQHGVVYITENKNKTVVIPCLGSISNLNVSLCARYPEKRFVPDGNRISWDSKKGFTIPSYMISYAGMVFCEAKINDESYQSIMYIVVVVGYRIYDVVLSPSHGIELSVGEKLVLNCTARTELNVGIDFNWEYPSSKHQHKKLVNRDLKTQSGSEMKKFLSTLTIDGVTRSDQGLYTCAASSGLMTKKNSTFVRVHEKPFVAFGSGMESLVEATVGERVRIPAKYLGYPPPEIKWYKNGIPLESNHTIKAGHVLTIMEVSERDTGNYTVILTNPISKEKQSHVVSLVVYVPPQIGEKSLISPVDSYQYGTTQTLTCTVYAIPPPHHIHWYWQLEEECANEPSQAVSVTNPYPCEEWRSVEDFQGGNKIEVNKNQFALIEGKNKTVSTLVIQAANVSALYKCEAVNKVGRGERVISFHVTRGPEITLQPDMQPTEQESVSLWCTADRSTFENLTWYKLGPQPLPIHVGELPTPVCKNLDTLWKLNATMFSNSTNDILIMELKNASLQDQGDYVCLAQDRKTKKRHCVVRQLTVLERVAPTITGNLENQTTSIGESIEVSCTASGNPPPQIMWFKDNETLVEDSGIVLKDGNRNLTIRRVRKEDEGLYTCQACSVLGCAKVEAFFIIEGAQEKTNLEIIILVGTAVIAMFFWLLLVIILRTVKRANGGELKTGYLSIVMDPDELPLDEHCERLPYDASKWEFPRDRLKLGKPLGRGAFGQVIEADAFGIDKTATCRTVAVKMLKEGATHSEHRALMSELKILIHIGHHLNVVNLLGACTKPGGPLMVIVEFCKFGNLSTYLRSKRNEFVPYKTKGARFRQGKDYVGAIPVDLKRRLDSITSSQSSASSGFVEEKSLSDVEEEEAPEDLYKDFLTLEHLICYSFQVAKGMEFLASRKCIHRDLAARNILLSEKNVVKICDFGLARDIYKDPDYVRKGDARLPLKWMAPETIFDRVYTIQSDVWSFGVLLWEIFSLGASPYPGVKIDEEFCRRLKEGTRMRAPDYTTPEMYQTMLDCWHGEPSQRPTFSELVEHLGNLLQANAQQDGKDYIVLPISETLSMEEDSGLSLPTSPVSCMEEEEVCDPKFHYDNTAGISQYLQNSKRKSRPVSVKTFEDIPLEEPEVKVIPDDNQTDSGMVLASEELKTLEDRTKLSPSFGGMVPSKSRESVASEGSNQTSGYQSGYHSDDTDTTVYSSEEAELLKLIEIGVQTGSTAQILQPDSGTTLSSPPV
MEASUREMENT NAME: pIC50
Please express pIC50 as -log10 of the molar concentration.

Here are 2 compounds together with their reported answers.
O=C(CN1C(=O)NC(c2ccccc2)(c2ccccc2)C1=O)NN=C1C(=O)Nc2ccc(F)cc21 | 7.05
O=C(CN1C(=O)NC(c2ccccc2)(c2ccccc2)C1=O)NN=Cc1c[nH]c2ccccc12 | 6.33

Now, please, on to the next compound.
Prompt line: Quote pIC50 with test system VEGFR2 (Homo sapiens) for O=C(CN1C(=O)NC(c2ccccc2)(c2ccccc2)C1=O)NN=C1C(=O)Nc2ccc([N+](=O)[O-])cc21
Response line: 5.60
